- Test system: Human immunodeficiency virus 1
- ASSAY_PROTOCOL: Antiviral activity against HIV1 harboring reverse transcriptase […]/K103N double mutant infected in HEK293T cells transfected with plasmid VSV-G/pNL4-3.luc.R-E- assessed as inhibition of viral replication after 48 hrs by luciferase reporter gene assay
- Assay type: functional, organism-based, HEK-293T
- RECORDED_CONDITIONS: Human immunodeficiency virus 1, HEK-293T, 48 h
MEASURED_ENDPOINT: IC50 (µM)
Just the number please, in µM, no unit attached.

(Q) Give recorded IC50. `COc1ccc(CNc2nc(-c3ccccc3F)c(Cc3ccccc3)s2)cc1`
(A) 5.24

(Q) Give recorded IC50. `COc1ccc(CNc2nc(-c3ccc(F)cc3F)c(Cc3ccccc3)s2)cc1`
(A) 5.36

(Q) Give recorded IC50. `Cc1ccnc2c1NC(=O)c1cccnc1N2C1CC1`
(A) 5

As a next step, examine the compound that follows.
(Q) Give recorded IC50. `COc1ccc(CNc2nc(-c3ccccc3Cl)c(Cc3ccccc3)s2)cc1`
(A) 5.11

----------
- Tested on: Human immunodeficiency virus 1
- ASSAY_PROTOCOL: Antiviral activity against HIV1 harboring reverse transcriptase K103N/G190A double mutant infected in HEK293T cells transfected with plasmid VSV-G/pNL4-3.luc.R-E- assessed as inhibition of viral replication after 48 hrs by luciferase reporter gene assay
- Assay type: functional, organism-based, HEK-293T
- RECORDED_CONDITIONS: Human immunodeficiency virus 1, HEK-293T, 48 h
MEASURED_ENDPOINT: IC50 (nM)
Just the number please, in nM, no unit attached.

(Q) Give recorded IC50. `COc1ccc(CNc2nc(-c3ccc(F)cc3F)c(Cc3ccccc3)s2)cc1`
(A) 400

(Q) Give recorded IC50. `COc1ccc(CNc2nc(-c3ccccc3Cl)c(Cc3ccccc3)s2)cc1`
(A) 4180

As a next step, examine the molecule that follows.
(Q) Give recorded IC50. `COc1ccc(CNc2nc(-c3ccccc3F)c(Cc3ccccc3)s2)cc1`
(A) 160

----------
- ASSAY_PROTOCOL: Retention time of the compound by HPLC analysis
- Type: physicochemical
MEASURED_ENDPOINT: Retention_time
Value and unit, in that order.

Worked cases, Retention_time given:
(Q) Give recorded Retention_time. `COc1ccc(-c2nc(N(C)C)sc2Cc2ccccc2)cc1`
(A) 35.28 min

(Q) Give recorded Retention_time. `COc1ccc(CCNc2nc(-c3ccc(OC)cc3)c(Cc3ccccc3)s2)cc1`
(A) 36.91 min

(Q) Give recorded Retention_time. `COc1ccc(Nc2nc(-c3ccccc3)c(Cc3ccccc3OC)s2)cc1`
(A) 3.18 min

New cases:
(Q) Give recorded Retention_time. `COc1ccc(-c2nc(NCc3cccc(OC)c3)sc2Cc2ccccc2)cc1`
(A) 27.45 min

(Q) Give recorded Retention_time. `COc1ccc(-c2nc(NCc3c(Cl)cccc3Cl)sc2Cc2ccccc2)cc1`
(A) 7.67 min

----------
- Tested on: Human immunodeficiency virus 1
- ASSAY_PROTOCOL: Antiviral activity against HIV1 harboring reverse transcriptase K103N/P225H double mutant infected in HEK293T cells transfected with plasmid VSV-G/pNL4-3.luc.R-E- assessed as inhibition of viral replication after 48 hrs by luciferase reporter gene assay relative HIV1
- Type: functional, HEK-293T
MEASURED_ENDPOINT: fold change (FC)
Just the number, please, no unit attached.

(Q) Give recorded fold change (FC). `O=C1Nc2ccc(Cl)cc2[C@@](C#CC2CC2)(C(F)(F)F)O1`
(A) 154

(Q) Give recorded fold change (FC). `COc1ccc(CNc2nc(-c3ccccc3F)c(Cc3ccccc3)s2)cc1`
(A) 77.6

(Q) Give recorded fold change (FC). `COc1ccc(CNc2nc(-c3ccccc3Cl)c(Cc3ccccc3)s2)cc1`
(A) 17

(Q) Give recorded fold change (FC). `Cc1ccnc2c1NC(=O)c1cccnc1N2C1CC1`
(A) 177

New cases:
(Q) Give recorded fold change (FC). `COc1ccc(CNc2nc(-c3ccc(F)cc3F)c(Cc3ccccc3)s2)cc1`
(A) 56.1
